Reference source: patent US20130096170A1

experiment: clinical; conditions: human, plasma, intravenous, Weight-adjusted Vd Median, Dose Level 3, LD 1.00/CD 0.7 μg/kg/hr; full evaluable population

| mol | Vd [L/kg] |
| --- | --- |
| Cc1cccc([C@H](C)c2cnc[nH]2)c1C | 2.19 |

* * *

assay: clinical; details: human, plasma, intravenous, Volume of Distribution, Geo. Mean of individual Bayesian estimates, 28 weeks GA-<1 month (n = 28)

| compound | Vd |
| --- | --- |
| Cc1cccc([C@H](C)c2cnc[nH]2)c1C [dexmedetomidine] | 14.1 L |

* * *

experiment: clinical; details: human, plasma, intravenous, Weight-adjusted Vd Mean, Dose Level 3, LD 1.00/CD 0.7 μg/kg/hr; full evaluable population
recorded.metric: Vd (L/kg)

| compound | measurement.units | reported.measurement |
| --- | --- | --- |
| Cc1cccc([C@H](C)c2cnc[nH]2)c1C [dexmedetomidine] | L/kg | 2.44 |

* * *

assay: clinical; details: human, plasma, intravenous, Weight-Adjusted Vd, Geometric Mean (individual Bayesian estimates), Including Additional 11 Subjects; 28 weeks GA-<1 month (n = 28)

| mol | Vd (L/kg) |
| --- | --- |
| Cc1cccc([C@H](C)c2cnc[nH]2)c1C | 5.74 |

* * *

experiment: clinical; details: human, plasma, intravenous, Weight-adjusted CL, Table 30 key summary (mean); Dose Level 2, LD 0.50/CD 0.4 μg/kg/hr; full evaluable population
recorded.metric: clearance (mL/min/kg)

| mol | measurement.units | reported.measurement |
| --- | --- | --- |
| Cc1cccc([C@H](C)c2cnc[nH]2)c1C | mL/min/kg | 15 |

* * *

assay: clinical; conditions: human, plasma, intravenous, Weight-adjusted CL Mean, Dose Level 1, LD 0.25/CD 0.2 μg/kg/hr; full evaluable population

| mol | clearance [mL/min/kg] |
| --- | --- |
| Cc1cccc([C@H](C)c2cnc[nH]2)c1C | 17.3 |

* * *

assay: clinical; conditions: human, in vivo, Cl Mean
recorded.metric: clearance (mL/min)

| mol | recorded.metric | measurement.units | reported.measurement |
| --- | --- | --- | --- |
| Cc1cccc([C@H](C)c2cnc[nH]2)c1C | clearance | mL/min | 171 |

* * *

assay: clinical; settings: human, plasma, intravenous, Weight-adjusted Vd Mean, Dose Level 2, LD 0.50/CD 0.4 μg/kg/hr; full evaluable population
recorded.metric: Vd (L/kg)

| mol | recorded.metric | measurement.units | reported.measurement |
| --- | --- | --- | --- |
| Cc1cccc([C@H](C)c2cnc[nH]2)c1C | Vd | L/kg | 2.31 |

* * *

assay: clinical; conditions: human, plasma, intravenous, 0.7 ug/kg, Vd, Group II (≥6 to <17 y); Dose Level 3 (LD 1.00/CD 0.7 μg/kg/hr); geometric mean; full evaluable population

| mol | Vd (L) |
| --- | --- |
| Cc1cccc([C@H](C)c2cnc[nH]2)c1C | 46.6 |

* * *

assay: clinical; details: human, plasma, intravenous, Weight-adjusted Vd, Table 30 key summary (mean); Dose Level 4, LD 1.00/CD 2.00 μg/kg/hr; full evaluable population

| mol | measurement.units | Vd |
| --- | --- | --- |
| Cc1cccc([C@H](C)c2cnc[nH]2)c1C | L/kg | 2.5 |

* * *

test: clinical; conditions: human, plasma, intravenous, t1/2 Median, Dose Level 3, LD 1.00/CD 0.7 μg/kg/hr; full evaluable population
recorded.metric: half-life (h)

| mol | measurement.units | reported.measurement |
| --- | --- | --- |
| Cc1cccc([C@H](C)c2cnc[nH]2)c1C | h | 1.79 |
